B1: library; numbered along this chain (parent)
chain: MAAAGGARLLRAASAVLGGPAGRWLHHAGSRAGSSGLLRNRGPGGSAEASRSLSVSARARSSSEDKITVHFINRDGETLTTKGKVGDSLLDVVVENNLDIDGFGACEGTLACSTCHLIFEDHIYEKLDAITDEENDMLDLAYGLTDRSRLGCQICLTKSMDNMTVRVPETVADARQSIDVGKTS

- Variants of: B1
- methodNotes: scaled log2 fold change in cell abundance, elesclomol vs control (0 = silent mean, 1 = nonsense mean) (scaled log2 ratio); higher = higher viability under elesclomol (loss of FDX1 cuproptosis function);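 also: variant abundance is its share of total variant reads in each endpoint sample, from next-generation sequencing of the integrated ORF PCR-amplified out of genomic DNA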
- conditions: with ABC1 FDX1 KO; elesclomol 5 nM; glucose 10 mM; 14 days
readoutType: scaled log2 fold change
Could you keep your reply to the number by itself?

**Query** What value of measured scaled log2 fold change is listed for L156Q ?
**Result** 0.697

**Query** Next variant: M163Q
**Result** 0.357

More entries:
**Query** Report scaled log2 fold change for S177N please.
**Result** 0.00267

**Query** Then L110Q ?
**Result** -0.0207

**Query** Ok, now K82T
**Result** -0.0344

**Query** Another variant to check: E48H
**Result** 0.521

**Query** Next variant up: G6N
**Result** 0.371

**Query** What do you get for D99A ?
**Result** 0.0591

**Query** Entry G102S please
**Result** 0.293

**Query** Next entry: S14Q
**Result** -0.469

Data credit: the supplement of paper PMC12855868
